METHOD NOTES: Hematology assays in cynomolgus monkeys (Example 45)
Assay type: in vivo
RUN PARAMETERS: day 57; escalating dose regimen
EXPERIMENTAL ENDPOINT: MCHC

MCHC reported for this substance ISIS 417002: MOE gapmer, nucleobases 1275 to 1318 of SEQ ID NO: 1 (Table 8) (antisense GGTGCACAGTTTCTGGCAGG; MOE gapmer, wing and gap sizes not given here) : 29 g/dL

MCHC reported for this substance ISIS 416858: MOE gapmer, nucleobases 1275 to 1318 of SEQ ID NO: 1 (Table 8) (antisense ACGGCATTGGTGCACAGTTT; MOE gapmer, wing and gap sizes not given here) : 31 g/dL

MCHC reported for this substance ISIS 416838: MOE gapmer, nucleobases 1018 to 1042 of SEQ ID NO: 1 (Table 6) (antisense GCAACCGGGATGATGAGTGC; MOE gapmer, wing and gap sizes not given here) : 29 g/dL

MCHC reported for this substance ISIS 416864: MOE gapmer, nucleobases 1275 to 1318 of SEQ ID NO: 1 (Table 8) (antisense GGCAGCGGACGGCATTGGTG; MOE gapmer, wing and gap sizes not given here) : 29 g/dL

MCHC reported for this substance ISIS 416850: MOE gapmer, nucleobases 1275 to 1318 of SEQ ID NO: 1 (Table 8) (antisense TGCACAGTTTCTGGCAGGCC; MOE gapmer, wing and gap sizes not given here) : 29 g/dL
